MEASURED TARGET: human 5HT2c receptor (VSV isoform) (Homo sapiens, UniProt P28335, I156V/I160V/N158S)
ASSAY COMMENT: cell-based
pEC50: −log10 of the molar value.
MEASUREMENT LABEL: pEC50

Would you please look over these solved cases?
{"columns": ["COMPOUND", "pEC50"],
 "data": [
  ["Clc1ccc(Cn2ccc3sc4c(c32)CCNCC4)cc1 [Example 11]", "> 8.00"],
  ["c1cn(CC2CCCCC2)c2c3c(sc12)CCNCC3 [Example 20]", "> 7.00"],
  ["Cc1ccc(-n2ccc3sc4c(c32)CCNCC4)cc1 [Example 13]", "> 7.00"],
  ["c1ccc(Cn2ccc3sc4c(c32)CCNCC4)cc1 [Example 4]", "> 8.00"],
  ["Cc1ccccc1Cn1ccc2sc3c(c21)CCNCC3 [Example 6]", "> 8.00"],
  ["Clc1ccc(-n2ccc3sc4c(c32)CCNCC4)cc1 [Example 5]", "> 6.00"],
  ["Cc1ccc(Cn2ccc3sc4c(c32)CCNCC4)cc1 [Example 8]", "> 8.00"],
  ["Clc1cccc(Cn2ccc3sc4c(c32)CCNCC4)c1 [Example 10]", "> 8.00"]
]}

(Q) Suppose we examine the compound COc1cccc(Cn2ccc3sc4c(c32)CCNCC4)c1 [Example 18] ; what pEC50 value has been reported?
(A) > 8.00

(Q) Suppose we examine the compound Cc1cccc(-n2ccc3sc4c(c32)CCNCC4)c1 [Example 15] ; what pEC50 value has been reported?
(A) > 7.00

(Q) Suppose we examine the compound CCn1ccc2sc3c(c21)CCNCC3 [Example 1] ; what pEC50 value has been reported?
(A) > 8.00

(Q) Suppose we examine the compound Clc1ccc(Cn2ccc3sc4c(c32)CCNCC4)cc1Cl [Example 23] ; what pEC50 value has been reported?
(A) > 8.00

###

Attribute: pEC50
MEASURED TARGET: human 5HT2c receptor (VSV isoform) (Homo sapiens, UniProt P28335, I156V/I160V/N158S)
ASSAY COMMENT: cell-based
pEC50: −log10 of the molar value.

{"columns": ["RECORD SMILES", "MEASURED TARGET", "ENDPOINT RESULT"],
 "data": [
  ["c1ccc2c(Cn3ccc4sc5c(c43)CCNCC5)cccc2c1", "human 5HT2c receptor (VSV isoform) (Homo sapiens, UniProt P28335, I156V/I160V/N158S)", "> 8.00"],
  ["c1cc(Cn2ccc3sc4c(c32)CCNCC4)c2ccncc2c1", "human 5HT2c receptor (VSV isoform) (Homo sapiens, UniProt P28335, I156V/I160V/N158S)", "> 8.00"],
  ["c1ccc2c(Cn3ccc4sc5c(c43)CCNCC5)nccc2c1", "human 5HT2c receptor (VSV isoform) (Homo sapiens, UniProt P28335, I156V/I160V/N158S)", "> 8.00"]
]}

(Q) Suppose we examine the compound c1cnc2c(Cn3ccc4sc5c(c43)CCNCC5)cccc2c1 ; what pEC50 value has been reported?
(A) > 7.00

(Q) Suppose we examine the compound COc1ccc(Cn2ccc3sc4c(c32)CCNCC4)cc1 ; what pEC50 value has been reported?
(A) > 7.00

###

Attribute: pEC50
MEASURED TARGET: human 5HT2c receptor (VSV isoform) (Homo sapiens, UniProt P28335, I156V/I160V/N158S)
Sequence (P28335 33-458 I156V/N158S/I160V): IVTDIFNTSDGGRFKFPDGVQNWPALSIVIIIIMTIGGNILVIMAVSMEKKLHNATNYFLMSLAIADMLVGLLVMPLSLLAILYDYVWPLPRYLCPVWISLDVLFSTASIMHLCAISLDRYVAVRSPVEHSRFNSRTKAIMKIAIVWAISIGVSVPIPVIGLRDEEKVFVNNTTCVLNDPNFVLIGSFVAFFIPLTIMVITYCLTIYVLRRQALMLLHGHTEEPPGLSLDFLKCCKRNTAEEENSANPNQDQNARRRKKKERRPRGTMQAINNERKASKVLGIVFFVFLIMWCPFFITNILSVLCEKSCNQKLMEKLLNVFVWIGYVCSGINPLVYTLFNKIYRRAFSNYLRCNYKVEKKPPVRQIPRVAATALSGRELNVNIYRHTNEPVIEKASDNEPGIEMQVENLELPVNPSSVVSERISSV
ASSAY COMMENT: cell-based
pEC50: −log10 of the molar value.

Would you please look over these solved cases?
{"columns": ["COMPOUND", "ENDPOINT RESULT"],
 "data": [
  ["Clc1cccc(-n2ccc3sc4c(c32)CCNCC4)c1 [Example 17]", "> 7.00"],
  ["Clc1cccc(Cn2ccc3sc4c(c32)CCNCC4)c1Cl [Example 22]", "> 8.00"],
  ["Cc1cccc(Cn2ccc3sc4c(c32)CCNCC4)c1 [Example 7]", "> 8.00"],
  ["COc1ccc(-n2ccc3sc4c(c32)CCNCC4)cc1 [Example 14]", "> 7.00"]
]}

# input for lookup
(Q) Suppose we examine the compound COc1cccc(-n2ccc3sc4c(c32)CCNCC4)c1 [Example 16] ; what pEC50 value has been reported?
(A) > 6.00

Measured values drawn from patent US9309262B2 for this set.
